molecular target: EGFR (ERBB1) (UniProt P00533); conditions: N = BndU (5-benzylaminocarbonyl-2'-deoxyuridine); text prints natural T in the 5' region CCACGCTGGGTGGGTC while listing shows n there [n positions 7,11,15,18,24,25,27,31,36,37,39,40,44,45,47,48,49,53,54 = modified dU]
outcome measure: Kd (pM)
Give bare numbers, in pM.

IN: Fill blank: measured Kd of the sequence CCACGCTGGGTGGGTCATCGAGGTTGTGGGTCGGATTGTTGGATTCTTTAAGTTGGGAACACCAACCGAGAACG [EGFR aptamer SEQ ID NO: 4] is ____.
OUT: 123
